Tested on: HT29 colon
procedure details: NCI tumour cell line growth inhibition, 48 h
property measured: TGI

// worked examples, TGI included
Cc1ccc(SC(=O)N2C(=S)NC(=NC3CCCCC3)C23CCCCC3)cc1 = > 100 µM
Cc1cc(=O)oc2cc(O)c(CN(C)CC(=O)O)cc12 = > 100 µM
O=c1[nH]c(N/N=C\C(O)C(O)C(O)CO)nc2ccccc12 (centres undefined) = > 100 µM
CCc1c(C)c(C#N)c(=S)n(C2OC(CO)C(O)C(O)C2O)c1C (centres undefined) = > 100 µM
O=C1Nc2cccc3cc(NCC(O)CCl)cc1c23 (centres undefined) = > 100 µM

Returns the measured TGI for the input molecule. Input: COc1c2cc(C(C)(C)C)cc1Cc1cccc(c1O)Cc1cc(C(C)(C)C)cc(c1OC)Cc1cccc(c1O)Cc1cc(C(C)(C)C)cc(c1OC)Cc1cccc(c1O)C2
> 100 µM

// next record O=C1NC2(CN3CCC2CC3)C(=O)N1CN(Cc1ccccc1)c1ccccc1 (centres undefined)
> 100 µM

Subsequent entry: CC(=O)Nc1ccc(S(=O)(=O)NNC(=O)c2cccnc2Nc2ccc(Cl)cc2)cc1
> 100 µM

###

Entries annotated with measured TGI
System: A549 NSCLC
procedure details: NCI tumour cell line growth inhibition, 48 h

# count of solved cases: 10
O=C(N[C@H]1c2ccsc2/C(=N/O)[C@H]1O)C(F)(F)F = > 100 µM
O=C1C(Br)=C(c2ccccc2)S(=O)c2ccccc21 (centres undefined) = 62 µM
CN(C)CCCOCCn1c2c(c3ccccc31)CCCC2 = 31.8 µM
C=C=C(C(=O)OC)S(=O)c1ccc([N+](=O)[O-])cc1[N+](=O)[O-] (centres undefined) = > 100 µM
NNC(=S)N1CCN(C(=S)NN)CC1 = > 100 µM
CC(=O)N1CCN(C23OC4(N5CCN(C(C)=O)CC5)C5C6CC(C7C6C4C72)C53)CC1 (centres undefined) = > 100 µM
O=C1/C(=C2\Sc3c(ccc(Cl)c3Cl)C2=O)Sc2c1ccc(Cl)c2Cl = > 100 µM
O=S1(=O)c2ccccc2NC(=S)CC1c1ccccc1 (centres undefined) = > 100 µM
CSC1=NS(=O)(=O)c2cc(C(=O)NN(C)C(=O)c3cc4c(cc3Cl)SC(SC)=NS4(=O)=O)c(Cl)cc2S1 = > 10 µM
c1ccc2c(Cc3nnc4sc(SSc5nn6c(Cc7c[nH]c8ccccc78)nnc6s5)nn34)c[nH]c2c1 = 88.4 µM

Entry S=c1nc(-c2cccnc2)[nH][nH]1 has what TGI?
> 100 µM

And for FCc1ncc(-c2ccc(C(F)(F)F)cc2)c(NC2CCCCCC2)n1 ?
> 10 µM

Now try CCN(CC)c1ccc2c(c1)Nc1cc(=C(C#N)C#N)c3ccccc3c1=N2 .
> 100 µM

Now the molecule Cc1c2ccc(N(C)c3ccnc(Nc4cccc(S(N)(=O)=O)c4)n3)cc2nn1C
> 25 µM

###

System: NCI-H23 lung
procedure details: NCI tumour cell line growth inhibition, 48 h
property measured: TGI

What value of measured TGI is listed for CSC1=NS(=O)(=O)c2cc(C(=O)NN(C)C(=O)c3cc4c(cc3Cl)SC(SC)=NS4(=O)=O)c(Cl)cc2S1 ?
> 10 µM

Same lookup for Cc1nn(-c2ccccc2)c(-c2ccccc2[N+](=O)[O-])c1CC#N , please.
> 100 µM

Entry to check: Cc1cc(=O)oc2cc(O)ccc12
> 100 µM

Continue with C[N+](C)(C)c1ncnc2c1ncn2C1CCCCO1 (stereo unspecified)
> 100 µM

// repeat for Nc1cc(N2CCCC2)nc(=O)n1Cc1ccccc1 and report
> 100 µM

Follow-up entry: CCO/C(O)=C(/C(=N)N1CCCC1)C(=O)Nc1cccc(C(F)(F)F)c1
> 100 µM
